Molecular target: JAK3 (Homo sapiens, UniProt P52333)
Construct: endogenous in cells; mixed lysate 1:2
Sequence (P52333 1-1124): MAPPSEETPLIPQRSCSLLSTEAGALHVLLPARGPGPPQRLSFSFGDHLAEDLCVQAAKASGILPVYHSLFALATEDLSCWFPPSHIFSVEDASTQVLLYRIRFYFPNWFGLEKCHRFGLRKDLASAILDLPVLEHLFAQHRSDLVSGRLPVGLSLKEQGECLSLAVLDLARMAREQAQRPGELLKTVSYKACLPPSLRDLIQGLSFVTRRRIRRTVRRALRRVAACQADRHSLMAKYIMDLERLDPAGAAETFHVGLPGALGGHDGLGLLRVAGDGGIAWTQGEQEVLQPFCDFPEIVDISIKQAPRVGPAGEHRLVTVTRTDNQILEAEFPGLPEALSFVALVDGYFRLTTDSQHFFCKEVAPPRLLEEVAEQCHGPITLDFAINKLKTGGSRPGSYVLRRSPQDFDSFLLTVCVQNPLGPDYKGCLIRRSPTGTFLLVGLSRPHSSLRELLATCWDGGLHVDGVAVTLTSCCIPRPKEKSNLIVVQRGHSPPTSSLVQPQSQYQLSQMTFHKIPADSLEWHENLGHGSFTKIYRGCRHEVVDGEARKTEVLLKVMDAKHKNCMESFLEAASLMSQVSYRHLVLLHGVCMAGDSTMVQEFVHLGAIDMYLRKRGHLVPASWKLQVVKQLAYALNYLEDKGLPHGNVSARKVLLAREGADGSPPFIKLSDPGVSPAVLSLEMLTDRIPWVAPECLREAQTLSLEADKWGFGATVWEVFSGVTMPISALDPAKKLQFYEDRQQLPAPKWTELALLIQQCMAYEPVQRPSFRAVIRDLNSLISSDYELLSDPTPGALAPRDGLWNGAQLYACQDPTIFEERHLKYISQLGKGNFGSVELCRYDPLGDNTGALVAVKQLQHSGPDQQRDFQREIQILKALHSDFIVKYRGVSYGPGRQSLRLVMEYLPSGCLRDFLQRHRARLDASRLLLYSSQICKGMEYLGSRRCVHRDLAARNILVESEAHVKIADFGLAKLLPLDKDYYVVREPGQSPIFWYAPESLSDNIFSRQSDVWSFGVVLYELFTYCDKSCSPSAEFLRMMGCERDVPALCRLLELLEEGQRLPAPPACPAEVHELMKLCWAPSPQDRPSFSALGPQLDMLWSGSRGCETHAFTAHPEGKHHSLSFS
Test: Kinobeads assay with immunodetection, JAK3
Settings: Kinobeads assay, mixed Molt4/Ramos lysate; read-out: Inhibition values (IC50) JAK3
Method: Determination of the Effect of the Compounds According to the Invention on Janus Kinases (JAK Family) in Kinobeads™ Assays with Immunodetection of Kinases The compounds of the present invention as described in the previous examples were tested in a Kinobeads™ assay as described for ZAP-70 (WO-A 2007/137867). […] Dose response curves for individual kinases were generated and IC50 values calculated. […]
Quick reference for IC50 among some compounds

QUERY: Using the record for Cn1cc(Nc2ncc(Cl)c(NC[C@H]3CCCN(C(=O)CC#N)C3)n2)cn1 , state its measured IC50.
RESULT: < 100 nM

QUERY: Using the record for CC(C)S(=O)(=O)CCN1CCC[C@@H]1CNc1nc(Nc2cnn(C)c2)ncc1Cl , state its measured IC50.
RESULT: < 100 nM

QUERY: Using the record for Cn1cc(Nc2ncc(Cl)c(NCC3CCCCC3)n2)cn1 , state its measured IC50.
RESULT: 100 to 1000 nM

QUERY: Using the record for Cc1cnc(Nc2cnn(CC(F)F)c2)nc1NC[C@@H]1CCCN1CCS(C)(=O)=O , state its measured IC50.
RESULT: 100 to 1000 nM

QUERY: Using the record for CC(C)NC(=O)Cn1cc(Nc2nccc(NC[C@H]3CCCN3CCS(C)(=O)=O)n2)cn1 , state its measured IC50.
RESULT: 100 to 1000 nM

QUERY: Using the record for Cn1cc(Nc2ncc(Cl)c(NC[C@H]3CCCN3CCCC#N)n2)cn1 , state its measured IC50.
RESULT: < 100 nM

QUERY: Using the record for Cc1cnc(Nc2cnn(C)c2)nc1NC[C@H]1CCCN1S(C)(=O)=O , state its measured IC50.
RESULT: < 100 nM

QUERY: Using the record for CS(=O)(=O)N1CC(CNc2nc(Nc3cnn(CCO)c3)ncc2Cl)C1 , state its measured IC50.
RESULT: < 100 nM

QUERY: Using the record for Cc1cnc(Nc2cnn(C)c2)nc1NC[C@@H]1C[C@H](F)CN1CCS(C)(=O)=O , state its measured IC50.
RESULT: 100 to 1000 nM
